# Test system: M. tb, strain H37Rv
# ASSAY INFO: MABA minimum inhibitory concentration assay (aerobic)
# Assay type: cell-based, Mycobacterium tuberculosis
# CONDITIONS USED: Mycobacterium tuberculosis, H37RV, aerobic; read-out: MIC MABA
List of MIC values.
Please append the unit to your numeric answer.

Record excerpt, results attached:
| COMPOUND | SYSTEM | ENDPOINT RESULT |
| --- | --- | --- |
| O=[N+]([O-])c1cn2c(n1)OC(COc1cnc(-c3ccc(F)cc3)cn1)CC2 (centres unmarked) | M. tb, strain H37Rv | 0.15 µM |
| O=C(c1ccc(F)cc1)N1CCN(CC2CCn3cc([N+](=O)[O-])nc3O2)CC1 (centres unmarked) | M. tb, strain H37Rv | 46 µM |
| CC1(COc2cccc(-c3ccc(F)nc3F)n2)CCn2cc([N+](=O)[O-])nc2O1 (centres unmarked) | M. tb, strain H37Rv | 9.3 µM |
| CC1(COCc2ccc(OC(F)(F)F)cc2)CCn2cc([N+](=O)[O-])nc2O1 (centres unmarked) | M. tb, strain H37Rv | 0.55 µM |
| O=[N+]([O-])c1cn2c(n1)OC(COc1ccc(-c3ccc(F)nc3F)cn1)CC2 (centres unmarked) | M. tb, strain H37Rv | 0.25 µM |
| CC1(COCc2ccc(OCc3ccccc3)cc2)CCn2cc([N+](=O)[O-])nc2O1 (centres unmarked) | M. tb, strain H37Rv | 0.2 µM |
| CC1(COc2ccc(-c3ccc(F)cc3F)cn2)CCn2cc([N+](=O)[O-])nc2O1 (centres unmarked) | M. tb, strain H37Rv | 0.089 µM |

From here, focus on the item given below.
**Query** Entry CC1(COC(=O)N2CCN(c3ccc(F)cc3)CC2)CCn2cc([N+](=O)[O-])nc2O1 (centres unmarked) : reported MIC = ?
**Result** 3.4 µM

###

# System: M. tb, strain H37Rv
# ASSAY INFO: LORA minimum inhibitory concentration assay (hypoxic)
# Assay type: cell-based
# CONDITIONS USED: Mycobacterium tuberculosis
Recorded MIC by entry
A complete answer gives the number and then names the unit.

A selection of reference data follows.
| COMPOUND | ENDPOINT RESULT |
| --- | --- |
| CC1(COc2ccc(-c3ccc(F)cc3)cc2)CCn2cc([N+](=O)[O-])nc2O1 (centres unmarked) | 1.4 µM |
| O=[N+]([O-])c1cn2c(n1)OC(CN1CCN(c3ccc(F)cc3)CC1)CC2 (centres unmarked) | 9.9 µM |
| O=[N+]([O-])c1cn2c(n1)OC(COCc1ccc(-c3ccc(OC(F)(F)F)cc3)cc1)CC2 (centres unmarked) | 1.5 µM |
| C[C@@]1(COCc2ccc(-c3ccc(OC(F)(F)F)cc3)cc2)CCn2cc([N+](=O)[O-])nc2O1 | 6.8 µM |
| O=[N+]([O-])c1cn2c(n1)OC(COc1ncc(-c3ccc(F)nc3)cn1)CC2 (centres unmarked) | 21 µM |

**Query** Missing value: MIC, M. tb, strain H37Rv, entry O=[N+]([O-])c1cn2c(n1)OC(COc1ccc(-c3ccc(OC(F)(F)F)cc3)cn1)CC2 (centres unmarked) . Fill in?
**Result** 0.47 µM

**Query** Form field: MIC recorded for CC1(COc2ccc(-c3ccc(OC(F)(F)F)cc3)cc2)CCn2cc([N+](=O)[O-])nc2O1 (centres unmarked) with M. tb, strain H37Rv (enter value)
**Result** 1.3 µM

**Query** # query: MIC | item C[C@]1(COCc2ccc(-c3ccc(OC(F)(F)F)cc3)cc2)CCn2cc([N+](=O)[O-])nc2O1 | system: M. tb, strain H37Rv
**Result** 1.1 µM
